- target: human GPCR sphingosine 1-phosphate receptor 1 (Homo sapiens)
- Construct: host or cells: CHO
- Sequence (P21453 whole entry): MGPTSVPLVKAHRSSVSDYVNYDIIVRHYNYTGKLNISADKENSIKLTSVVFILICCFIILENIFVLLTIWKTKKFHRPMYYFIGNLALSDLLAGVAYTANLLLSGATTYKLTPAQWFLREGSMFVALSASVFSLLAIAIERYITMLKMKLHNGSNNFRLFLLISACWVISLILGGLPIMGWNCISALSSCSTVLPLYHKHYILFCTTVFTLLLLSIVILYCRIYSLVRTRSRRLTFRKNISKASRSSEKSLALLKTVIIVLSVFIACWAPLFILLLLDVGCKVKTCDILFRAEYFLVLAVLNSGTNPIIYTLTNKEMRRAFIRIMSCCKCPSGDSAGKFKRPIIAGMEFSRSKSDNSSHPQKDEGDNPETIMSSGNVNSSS
- measurementProtocol: S1PR1 selectivity Ca2+ flux assay (antagonist readout)
- Assay type: cell-based
pEC50: −log10 of the molar value.
Each entry below carries its reported pEC50.

- compound: "CC(C(=O)O)n1nc(Cn2cc3cc(OCC(F)F)c(Cl)cc3n2)c2ccccc2c1=O (centres unmarked)"
  result: "≤ 4.70"

Pending compound:
Problem: Report value only: pEC50, human GPCR sphingosine 1-phosphate receptor 1 (Homo sapiens), CC(C(=O)O)n1nc(Cc2cn3cc(OCC4CC4)c(Cl)cc3n2)c2ccccc2c1=O (centres unmarked)
Result: ≤ 4.70

* * *

- target: human GPCR sphingosine 1-phosphate receptor 2 (Homo sapiens)
- Construct: host or cells: CHO
- measurementProtocol: S1PR2 antagonist Ca2+ flux assay
- Assay type: cell-based
- assaySetup: antagonist mode, CHO-S1PR2 cells, S1P at EC80, Ca2+ fluorescence; read-out: S1P2 EC50 (nM), S1P2 antagonist EC50
metricName: EC50 (nM)

- compound: "N#Cc1cc2[nH]c(Cc3nn(CC(=O)N4CCN(CC5CC5)CC4)c(=O)c4ccccc34)nc2cc1OCC(F)F"
  unitSpec: "nM"
  EC50: 1410
- compound: "N#Cc1cc2nc(Cc3nn(CC(=O)N4CCC(O)CC4)c(=O)c4ccccc34)[nH]c2cc1OCC(F)F"
  unitSpec: "nM"
  EC50: 36.5
- compound: "O=C(Cn1nc(Cc2nc3cc(OCC(F)F)c(F)cc3[nH]2)c2c(c1=O)CCCC2)N1CCOCC1"
  unitSpec: "nM"
  EC50: 107
- compound: "CC(C)(C)C(O)CNC(=O)Cn1nc(Cc2nc3cc(OCC(F)F)c(C#N)cc3[nH]2)c2ccccc2c1=O (stereo not drawn)"
  unitSpec: "nM"
  EC50: 26.1
- compound: "COCC(O)CNC(=O)Cn1nc(Cc2nc3cc(C#N)c(OCC(F)F)cc3[nH]2)c2ccccc2c1=O (stereo not drawn)"
  unitSpec: "nM"
  EC50: 41

P: O=C(Cn1nc(Cc2nc3cc(OCC(F)F)c(Cl)cc3[nH]2)c2c(F)ccc(F)c2c1=O)N1CCOCC1
Q: N#Cc1ccc2c(=O)n(CC(=O)N3CCOCC3)nc(Cc3nc4cc(OCC(F)F)c(Cl)cc4[nH]3)c2c1
Problem: Between P and Q , whose measured EC50 reads higher? Lab note: record the label of whichever item you select.
Result: Q
(Q: 28.5 nM, P: 19.1 nM)

I: N#Cc1cc2[nH]c(Cc3nn(C(CN4CCC4)C(=O)O)c(=O)c4ccccc34)nc2cc1OCC(F)F (stereo not drawn)
II: CC(C)(C)COc1cc2[nH]c(Cc3nn(CC(=O)N4CCOCC4)c(=O)c4ccccc34)nc2cc1Cl
Problem: Between I and II , whose measured EC50 reads higher? Lab note: record the label of whichever item you select.
Result: I
(I: 3850 nM, II: 47.9 nM)

a: CC(F)(F)COc1cc2nc(Cc3nn(CC(=O)N4CCOCC4)c(=O)c4ccccc34)[nH]c2cc1C#N
b: N#Cc1cc2nc(Cc3nn(CC(=O)NCC4(CO)COC4)c(=O)c4ccccc34)[nH]c2cc1OCC(F)F
c: CN(C)C1CCN(C(=O)Cn2nc(Cc3nc4cc(OCC(F)F)c(C#N)cc4[nH]3)c3ccccc3c2=O)C1 (stereo not drawn)
d: N#Cc1cc2[nH]c(Cc3nn(CC(=O)N4CCC(O)C(F)(F)C4)c(=O)c4ccccc34)nc2cc1OCC(F)F (stereo not drawn)
Problem: // smallest EC50 at index 0, largest at the end Returns: the labels arranged in the requested order.
Result: a, d, b, c

P: CC(C)(C)COc1cc2nc(Cc3nn(CC(=O)O)c(=O)c4ccccc34)[nH]c2cc1Cl
Q: O=C(O)c1cn(Cc2nc3cc(OCC4CC4)c(C(F)(F)F)cc3[nH]2)c2ccccc2c1=O
Problem: Between P and Q , whose measured EC50 reads higher? Lab note: record the label of whichever item you select.
Result: P
(P: 26.4 nM, Q: 3.45 nM)

* * *

- target: human GPCR sphingosine 1-phosphate receptor 2 (Homo sapiens, UniProt O95136)
- Construct: host or cells: CHO
- measurementProtocol: S1PR2 antagonist Ca2+ flux assay
- Format: cell-based
- assaySetup: antagonist mode, CHO-S1PR2 cells, S1P at EC80, Ca2+ fluorescence; read-out: S1P2 EC50 (nM), S1P2 antagonist EC50
metricName: EC50 (nM)

- compound: "O=C(Cc1nn(Cc2nc3cc(OCC(F)F)c(F)cc3[nH]2)c2ccccc2c1=O)N1CCOCC1"
  target: "human GPCR sphingosine 1-phosphate receptor 2 (Homo sapiens, UniProt O95136)"
  metricName: "EC50"
  number: 195

1: N#Cc1ccc2c(Cc3nc4cc(Cl)c(OCC(F)F)cc4[nH]3)nn(CC(=O)N3CCOCC3)c(=O)c2c1
2: CCC(C(=O)O)c1nn(Cc2cn3cc(OCC4CC4)c(C(F)(F)F)cc3n2)c2ccccc2c1=O (stereo not shown)
Problem: Lower EC50: 1 or 2 ? Lab note: record the label of whichever item you select.
Result: 2

* * *

- target: S1PR2 (Homo sapiens, UniProt O95136)
- Construct: expressed in transfected cells
- Sequence (O95136 whole entry): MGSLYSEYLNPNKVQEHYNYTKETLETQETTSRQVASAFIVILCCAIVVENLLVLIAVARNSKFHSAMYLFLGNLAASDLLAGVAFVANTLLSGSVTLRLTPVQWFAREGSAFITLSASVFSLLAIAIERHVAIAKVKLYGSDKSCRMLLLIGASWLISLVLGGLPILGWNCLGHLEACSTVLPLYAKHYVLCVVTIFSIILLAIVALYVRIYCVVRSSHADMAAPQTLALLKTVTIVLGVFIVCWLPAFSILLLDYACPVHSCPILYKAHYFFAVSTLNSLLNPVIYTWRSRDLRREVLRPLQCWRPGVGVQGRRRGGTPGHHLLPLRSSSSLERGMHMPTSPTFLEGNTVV
- measurementProtocol: S1PR2 binding assay (competition with radioactively labeled S1P, SpA)
- assaySetup: membranes from stable cell line over expressing S1PR2, SpA beads; read-out: S1P2 EC50 (nM), S1PR2 binding EC50
metricName: EC50 (nM)

Take a look at these entries with their results.
- molecule: "N#Cc1cc2nn(Cc3nn(CC(=O)NC4CCCC4)c(=O)c4ccccc34)cc2cc1OCC(F)F"
  EC50, nM: 1510
- molecule: "O=c1c2ccccc2c(Cc2nc3cc(Cl)c(OC(F)(F)F)cc3[nH]2)nn1CC1CCNCC1"
  EC50, nM: 722
- molecule: "COc1ccc2c(Cn3cc4cc(OCC5CC5)c(Cl)cc4n3)nn(C(C)C(=O)O)c(=O)c2c1 (stereo not shown)"
  EC50, nM: 432

A: O=C(O)Cn1nc(Cc2nc3cc(Cl)c(OC(F)(F)F)cc3[nH]2)c2c(c1=O)CCCC2
B: CC(F)(F)COc1cc2[nH]c(Cc3nn(CC(=O)N4CCOCC4)c(=O)c4ccccc34)nc2cc1Cl
C: O=c1c2ccccc2c(Cc2nc3cc(Cl)c(OC(F)(F)F)cc3[nH]2)nn1CC1CNCCO1 (stereo not shown)
D: N#Cc1cc2[nH]c(Cc3nn(CC(=O)N4CCN(CC5CC5)CC4)c(=O)c4ccccc34)nc2cc1OCC(F)F
Problem: // smallest EC50 at index 0, largest at the end Returns: the labels arranged in the requested order.
Result: B, A, D, C

* * *

- target: S1PR2 (Homo sapiens)
- Construct: expressed in transfected cells
- measurementProtocol: S1PR2 binding assay (competition with radioactively labeled S1P, SpA)
- assaySetup: membranes from stable cell line over expressing S1PR2, SpA beads; read-out: S1P2 EC50 (nM), S1PR2 binding EC50
metricName: EC50 (nM)

- compound: "N#Cc1cc2[nH]c(Cc3nn(CC(=O)N4C[C@H](O)[C@@H](O)C4)c(=O)c4ccccc34)nc2cc1OCC(F)F [Compound 211]"
  unitSpec: "nM"
  EC50: 142
- compound: "N#Cc1cc2[nH]c(Cc3nn(C4CCN(CC(=O)O)C4)c(=O)c4ccccc34)nc2cc1OCC(F)F (centres unmarked) [Compound 71]"
  unitSpec: "nM"
  EC50: 357
- compound: "COCC(O)CNC(=O)Cn1nc(Cc2nc3cc(C#N)c(OCC(F)F)cc3[nH]2)c2ccccc2c1=O (centres unmarked) [Compound 192]"
  unitSpec: "nM"
  EC50: 190
- compound: "O=C(Cn1nc(Cc2nc3cc(Cl)c(OCC4CC4)cc3[nH]2)c2ccccc2c1=O)N1CCOCC1 [Compound 166]"
  unitSpec: "nM"
  EC50: 22.4
- compound: "O=C(Cn1nc(Cc2nc3cc(OCC(F)F)c(Cl)cc3[nH]2)c2c(F)ccc(F)c2c1=O)N1CCOCC1 [Compound 152]"
  unitSpec: "nM"
  EC50: 64

I: N#Cc1cc2[nH]c(Cc3nn(CC(=O)NCC(F)(F)CO)c(=O)c4ccccc34)nc2cc1OCC(F)F [Compound 228]
II: CN1CCC(n2nc(Cc3nc4cc(OCC(F)F)c(C#N)cc4[nH]3)c3ccccc3c2=O)C1 (centres unmarked) [Compound 72]
Problem: Lower EC50: I or II ? Lab note: record the label of whichever item you select.
Result: I
(I: 52.5 nM, II: 3090 nM)

a: N#Cc1cc2[nH]c(Cc3nn(CC(=O)N4CCC(N5CCOCC5)CC4)c(=O)c4ccccc34)nc2cc1OCC(F)F [Compound 238]
b: O=C(O)c1nn(Cc2nc3cc(OCC4CC4)c(Cl)cc3[nH]2)c2ccccc2c1=O [compound 5]
c: CN(C)C1CCN(C(=O)Cn2nc(Cc3nc4cc(OCC(F)F)c(C#N)cc4[nH]3)c3ccccc3c2=O)C1 (centres unmarked) [Compound 176]
d: O=C(O)c1cn(Cc2nc3cc(OCC4CC4)c(C(F)(F)F)cc3[nH]2)c2ccccc2c1=O [Compound 106]
e: COCCNC(=O)Cn1nc(Cc2nc3cc(C#N)c(OCC(F)F)cc3[nH]2)c2ccccc2c1=O [Compound 187]
Problem: // smallest EC50 at index 0, largest at the end Returns: the labels arranged in the requested order.
Result: d, b, e, c, a
(d: 14.1 nM, b: 22 nM, e: 165 nM, c: 386 nM, a: 5240 nM)

I: CC(C(=O)O)n1nc(Cc2nc3cc(OCC4CC4)c(Cl)cc3[nH]2)c2ccccc2c1=O (centres unmarked) [Compound 122]
II: N#Cc1cc2[nH]c(Cc3nn(CC(=O)NCCS(N)(=O)=O)c(=O)c4ccccc34)nc2cc1OCC(F)F [Compound 229]
III: O=C(O)Cc1nn(Cc2cn3cc(OCC4CC4)c(C(F)(F)F)cc3n2)c2ccccc2c1=O [Compound 99]
IV: CC1(C)OCC(Cn2nc(Cc3nc4cc(Cl)c(OC(F)(F)F)cc4[nH]3)c3ccccc3c2=O)O1 (centres unmarked) [Compound 38]
Problem: // smallest EC50 at index 0, largest at the end Returns: the labels arranged in the requested order.
Result: III, I, II, IV

a: CN(CCS(C)(=O)=O)C(=O)Cn1nc(Cc2nc3cc(OCC(F)F)c(C#N)cc3[nH]2)c2ccccc2c1=O [Compound 220]
b: N#Cc1cc2[nH]c(Cc3nn(CC(=O)N4CCC(O)(C(F)(F)F)C4)c(=O)c4ccccc34)nc2cc1OCC(F)F (centres unmarked) [Compound 216]
c: CN(CC1CC1)C(=O)Cn1nc(Cc2nc3cc(C#N)c(OCC(F)F)cc3[nH]2)c2ccccc2c1=O [Compound 196]
d: CN(C)[C@@H]1CCN(C(=O)Cn2nc(Cn3cc4cc(OCC(F)F)c(C#N)cc4n3)c3ccccc3c2=O)C1 [Compound 206]
Problem: // sort entries: EC50, high to low Returns: the labels arranged in the requested order.
Result: d, a, c, b
(d: 3620 nM, a: 320 nM, c: 83.1 nM, b: 44.7 nM)
